TEST_SYSTEM: T1, p38α(T185G) (UniProt P47811 1-360, T185G)
T1 construct: PCR product described as a full-length p38α harboring the desired mutation; His6 tag followed by a TEV cleavage site at the N-terminal end; also called T185G mutant; p38α(T185G) mutant kinase
T1 sequence (P47811 whole entry T185G): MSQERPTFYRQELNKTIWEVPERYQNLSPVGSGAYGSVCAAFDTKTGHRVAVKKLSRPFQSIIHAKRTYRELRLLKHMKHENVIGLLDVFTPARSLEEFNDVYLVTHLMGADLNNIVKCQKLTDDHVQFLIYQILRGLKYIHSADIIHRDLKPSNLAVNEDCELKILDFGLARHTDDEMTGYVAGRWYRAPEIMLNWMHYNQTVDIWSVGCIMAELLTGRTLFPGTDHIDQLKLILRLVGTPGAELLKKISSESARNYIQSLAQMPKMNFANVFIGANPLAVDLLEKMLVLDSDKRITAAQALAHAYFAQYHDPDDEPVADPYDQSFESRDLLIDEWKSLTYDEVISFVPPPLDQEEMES
ASSAY_INFO: ITC; ITC200 microcalorimeter (Microcal); T = 298 K; heats corrected for dilution; which partner was titrated is not stated
TEST_CONDITIONS: both partners purified
READOUT: Kd (nM)

1. GGRVYPVSVPYSSAQSTSKTSVTLSLVMP (peptide, UniProt Q15750 384-412, looked up)    1100

The origin of these recorded values is paper PMC5809688.
